Test system: MDA-MB-231
Assay: Induction in caspase-mediated apoptosis in human MDA-MB-231 cells assessed as decrease in cell viability at 2 uM incubated for 24 hrs in presence of Z-VAD-FMK by MTT assay
Format: functional, cell-based
Calls of active or inactive are those of the source. The rule behind the calls is not given here.
Assign a class; possible classes are YES for active, NO for inactive

Molecule	Category label
COc1ccc2c(c1)c(Cc1ccc(OCCN(C)C)cc1)c(-c1cc(OC)c(OC)c(OC)c1)n2Cc1ccc(OCCN(C)C)cc1	NO
CCN(CC)CCOc1ccc(Cc2c(-c3cc(OC)c(OC)c(OC)c3)n(Cc3ccc(OCCN(CC)CC)cc3)c3ccc(OC)cc23)cc1	YES
COc1ccc2c(c1)c(Cc1ccc(OC(C)CN(C)C)cc1)c(-c1cc(OC)c(OC)c(OC)c1)n2Cc1ccc(OC(C)CN(C)C)cc1 (centres undefined)	NO

Outcome logged for COc1ccc2c(c1)c(Cc1ccc(OCCN3CCCCC3)cc1)c(-c1cc(OC)c(OC)c(OC)c1)n2Cc1ccc(OCCN2CCCCC2)cc1 in this assay: YES

----------
Reported values of Activity for individual entries
System: MDA-MB-231
Test: Induction of cell cycle arrest in human MDA-MB-231 cells assessed as accumulation at S phase at 2 uM incubated for 24 hrs by PI staining based flow cytometry analysis (reference value: 40.37 to 57.89 %)
Format: functional
Use % as the unit, but write only the number.

Molecule	Measured on	Endpoint label	Observed result
COc1ccc2c(c1)c(Cc1ccc(OCCN(C)C)cc1)c(-c1cc(OC)c(OC)c(OC)c1)n2Cc1ccc(OCCN(C)C)cc1	MDA-MB-231	Activity	38.78

# return recorded Activity for input COc1ccc2c(c1)c(Cc1ccc(OCCN3CCCCC3)cc1)c(-c1cc(OC)c(OC)c(OC)c1)n2Cc1ccc(OCCN2CCCCC2)cc1 34.3

Quickly give me recorded Activity for CCN(CC)CCOc1ccc(Cc2c(-c3cc(OC)c(OC)c(OC)c3)n(Cc3ccc(OCCN(CC)CC)cc3)c3ccc(OC)cc23)cc1 38.21

Let me know recorded Activity for COc1ccc2c(c1)c(Cc1ccc(OC(C)CN(C)C)cc1)c(-c1cc(OC)c(OC)c(OC)c1)n2Cc1ccc(OC(C)CN(C)C)cc1 (centres undefined) , thanks. 40.83

----------
Some molecules, each annotated with its measured IC50.
System: MDA-MB-231
Assay: Cytotoxicity against human MDA-MB-231 cells assessed as reduction in cell viability incubated for 24 hrs by MTT assay
Assay type: functional, cell-based
Details: MDA-MB-231, 24 h

Here is how some molecules turned out for IC50.
Molecule	IC50
CCN(CC)CCOc1ccc(Cc2c(-c3cc(OC)c(OC)c(OC)c3)n(Cc3ccc(OCCN(CC)CC)cc3)c3ccc(OC)cc23)cc1	2.34 µM
COc1ccc2c(c1)c(Cc1ccc(OC(C)CN(C)C)cc1)c(-c1cc(OC)c(OC)c(OC)c1)n2Cc1ccc(OC(C)CN(C)C)cc1 (stereo not drawn)	3.88 µM
COc1ccc2c(c1)c(Cc1ccc(OCc3ccccc3)cc1)c(-c1cc(OC)c(OC)c(OC)c1)n2Cc1ccc(OCc2ccccc2)cc1	> 30 µM
COc1ccc2c(c1)cc(-c1cc(OC)c(OC)c(OC)c1)n2Cc1ccc(OCc2ccccc2)cc1	> 30 µM
COc1ccc2c(c1)c(Cc1ccc(OCCN3CCCCC3)cc1)c(-c1cc(OC)c(OC)c(OC)c1)n2Cc1ccc(OCCN2CCCCC2)cc1	2.42 µM

Return reported IC50 for target or system MDA-MB-231, item COc1ccc2[nH]c(-c3cc(OC)c(OC)c(OC)c3)cc2c1 . > 30 µM

Print MDA-MB-231 IC50 for CCOC(=O)COc1ccc(Cn2c(-c3cc(OC)c(OC)c(OC)c3)cc3cc(OC)ccc32)cc1 . > 30 µM

Retrieve IC50 on MDA-MB-231; query COc1ccc2c(c1)c(Cc1ccc(O)cc1)c(-c1cc(OC)c(OC)c(OC)c1)n2Cc1ccc(O)cc1 > 30 µM

----------
Tested on: MDA-MB-231
Test: Induction of apoptosis in human MDA-MB-231 cells assessed as viable cells at 2 uM incubated for 24 hrs by annexin-V-FITC and PI staining based flow cytometry analysis (reference value: 95.27 to 97.16 %)
Format: functional
Details: read-out: Activity
Endpoint label: viability at 2 µM (%)
Answer format: numeric, % implied, no suffix.

Completed entries (count: 3):
Compound	viability at 2 µM, %
COc1ccc2c(c1)c(Cc1ccc(OC(C)CN(C)C)cc1)c(-c1cc(OC)c(OC)c(OC)c1)n2Cc1ccc(OC(C)CN(C)C)cc1 (centres undefined)	72.5
CCN(CC)CCOc1ccc(Cc2c(-c3cc(OC)c(OC)c(OC)c3)n(Cc3ccc(OCCN(CC)CC)cc3)c3ccc(OC)cc23)cc1	88.2
COc1ccc2c(c1)c(Cc1ccc(OCCN(C)C)cc1)c(-c1cc(OC)c(OC)c(OC)c1)n2Cc1ccc(OCCN(C)C)cc1	80.7

Identify measured viability at 2 µM associated with COc1ccc2c(c1)c(Cc1ccc(OCCN3CCCCC3)cc1)c(-c1cc(OC)c(OC)c(OC)c1)n2Cc1ccc(OCCN2CCCCC2)cc1 81.5

----------
Tested on: MDA-MB-231
Test: Induction of cell cycle arrest in human MDA-MB-231 cells assessed as accumulation at G0/G1 phase at 6 uM incubated for 24 hrs by PI staining based flow cytometry analysis (reference value: 23.74 to 46.27 %)
Type: functional
Endpoint label: Activity (%)
Could you give me the number in %? Just the number is fine.

// below: answered compounds
Compound	Endpoint label	Value units	Observed result
COc1ccc2c(c1)c(Cc1ccc(OC(C)CN(C)C)cc1)c(-c1cc(OC)c(OC)c(OC)c1)n2Cc1ccc(OC(C)CN(C)C)cc1 (centres undefined)	Activity	%	49.36
COc1ccc2c(c1)c(Cc1ccc(OCCN3CCCCC3)cc1)c(-c1cc(OC)c(OC)c(OC)c1)n2Cc1ccc(OCCN2CCCCC2)cc1	Activity	%	59.19
COc1ccc2c(c1)c(Cc1ccc(OCCN(C)C)cc1)c(-c1cc(OC)c(OC)c(OC)c1)n2Cc1ccc(OCCN(C)C)cc1	Activity	%	64.37

# next compound below
Supply reported Activity belonging to this compound: CCN(CC)CCOc1ccc(Cc2c(-c3cc(OC)c(OC)c(OC)c3)n(Cc3ccc(OCCN(CC)CC)cc3)c3ccc(OC)cc23)cc1 57.6

These data points were gathered from ChEMBL document CHEMBL4811308.
